- target-entity: human SGLT2 (Homo sapiens, UniProt P31639)
- Construct: A full-length cDNA clone expressing human SGLT2
- Sequence (P31639 whole entry): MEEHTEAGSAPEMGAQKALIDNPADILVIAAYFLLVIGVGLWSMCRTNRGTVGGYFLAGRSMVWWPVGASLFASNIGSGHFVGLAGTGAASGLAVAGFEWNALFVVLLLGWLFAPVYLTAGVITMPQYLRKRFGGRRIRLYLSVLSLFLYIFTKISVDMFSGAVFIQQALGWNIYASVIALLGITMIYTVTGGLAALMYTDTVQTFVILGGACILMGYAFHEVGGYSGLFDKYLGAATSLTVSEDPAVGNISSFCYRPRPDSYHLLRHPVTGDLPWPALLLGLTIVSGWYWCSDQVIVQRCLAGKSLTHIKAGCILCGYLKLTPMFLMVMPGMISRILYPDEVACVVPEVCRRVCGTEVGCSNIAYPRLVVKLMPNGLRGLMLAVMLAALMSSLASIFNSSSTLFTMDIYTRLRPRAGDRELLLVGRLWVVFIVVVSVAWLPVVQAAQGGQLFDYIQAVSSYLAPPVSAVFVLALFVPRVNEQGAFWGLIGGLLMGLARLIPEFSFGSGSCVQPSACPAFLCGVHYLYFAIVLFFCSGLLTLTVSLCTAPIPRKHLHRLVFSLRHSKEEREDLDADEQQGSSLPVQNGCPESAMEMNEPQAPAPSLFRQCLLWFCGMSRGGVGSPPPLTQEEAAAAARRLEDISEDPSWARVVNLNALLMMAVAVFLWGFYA
- procedure-text: Methyl-α-D-[U-14C]glucopyranoside uptake assay, SGLT2
- Type: cell-based
- run-conditions: HEK293.ETN cells stably expressing human SGLT2; sodium-dependent uptake, 1.5 h incubation; read-out: SGLT2 IC50
measured-metric: IC50 (µM)

[I] CCOc1ccc(Cc2cc3c(cc2Cl)CO[C@]32O[C@H](CO)[C@@H](O)[C@H](O)[C@H]2O)cc1
[II] CCOc1ccc(Cc2ccc3c(c2)[C@]2(OC3)O[C@H](CO)[C@@H](O)[C@H](O)[C@H]2O)cc1
Parameter metric = IC50. Return the lower-valued option from I and II . // caller expects the label of the chosen entry
I
(I: 0.0051 µM, II: 0.071 µM)

###

Listing: IC50 of selected compounds
- target-entity: human SGLT1 (Homo sapiens)
- Construct: Full-length human SGLT1 cDNA on pDream2.1 expression vector
- Sequence (P13866 1-664): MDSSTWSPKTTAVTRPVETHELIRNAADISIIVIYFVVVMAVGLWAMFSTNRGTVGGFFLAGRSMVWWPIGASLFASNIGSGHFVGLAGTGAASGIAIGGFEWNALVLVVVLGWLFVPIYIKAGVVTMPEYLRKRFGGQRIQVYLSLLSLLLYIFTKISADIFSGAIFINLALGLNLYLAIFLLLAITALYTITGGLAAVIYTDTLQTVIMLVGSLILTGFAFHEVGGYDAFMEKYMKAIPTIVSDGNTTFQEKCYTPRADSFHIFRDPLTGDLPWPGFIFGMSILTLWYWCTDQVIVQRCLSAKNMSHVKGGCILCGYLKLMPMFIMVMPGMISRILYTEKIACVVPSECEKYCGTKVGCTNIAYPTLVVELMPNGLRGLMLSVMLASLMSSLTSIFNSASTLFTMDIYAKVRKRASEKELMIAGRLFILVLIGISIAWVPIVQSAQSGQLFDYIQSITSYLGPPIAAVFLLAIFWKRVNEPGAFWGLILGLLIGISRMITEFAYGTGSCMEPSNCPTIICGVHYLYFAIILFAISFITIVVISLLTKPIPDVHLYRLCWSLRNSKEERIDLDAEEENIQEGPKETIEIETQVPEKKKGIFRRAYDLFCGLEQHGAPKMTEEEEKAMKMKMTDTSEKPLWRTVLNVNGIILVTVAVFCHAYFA
- procedure-text: Methyl-α-D-[U-14C]glucopyranoside uptake assay, SGLT1
- run-conditions: COS-7 cells transfected with human SGLT1; sodium-dependent uptake, 2 h incubation

As a guide, the following entries are already answered.
> print(dat)
                                   compound  test.result
1  CCc1ccc(Cc2cc3c(cc2Cl)C(O)C[C@]32O[C@H](CO)[C@@H](O)[C@H](O)[C@H]2O)cc1 (stereo partly shown)      > 10 µM
2  CCc1ccc(Cc2cc3c(cc2Cl)CO[C@]32O[C@H](COC)[C@@H](O)[C@H](O)[C@H]2O)cc1   1 to 10 µM
3  CCc1ccc(Cc2cc3c(cc2Cl)CO[C@]32O[C@H](CNC(C)=O)[C@@H](O)[C@H](O)[C@H]2O)cc1   1 to 10 µM
4  CCc1ccc(C(=O)c2cc3c(cc2Cl)CO[C@]32O[C@H](CO)[C@@H](O)[C@H](O)[C@H]2O)cc1      > 10 µM
5  CCc1ccc(Cc2cc3c(cc2Cl)CO[C@]32O[C@H](COCC(F)(F)F)[C@@H](O)[C@H](O)[C@H]2O)cc1      > 10 µM
6  OC[C@H]1O[C@]2(CCc3cc(Cl)c(Cc4ccc(O[C@H]5CCOC5)cc4)cc32)[C@H](O)[C@@H](O)[C@@H]1O      > 10 µM

Please turn your attention to the following entry.
Which measured IC50 value corresponds to "CCOc1ccc(Cc2cc3c(cc2Cl)CO[C@]32O[C@H](CO)[C@@H](O)[C@H](O)[C@H]2O)cc1" ?
1 to 10 µM
